- Test system: Plasmodium falciparum
- Assay overview: NOVARTIS: Inhibition of Plasmodium falciparum W2 (drug-resistant) proliferation in erythrocyte-based infection assay
- Assay type: functional, organism-based
- Protocol conditions: Plasmodium falciparum, W2; read-out: EC50
Note to self: use YES only for EC50 readings below 400 nM; a reading exactly at 400 nM still gets NO.

Check if EC50 falls below 400 nM for COc1cc2nc(CN(C)C(C)c3cccs3)nc(N3CCCC3)c2cc1OC (stereo not given) .
NO

Check if EC50 falls below 400 nM for `COc1cc(C=CC(=O)Nc2c3c(nn2-c2ccc(F)cc2)CSC3)cc(OC)c1OC` .
YES

Check if EC50 falls below 400 nM for COC(=O)CC(NC(=O)c1ccc(C)cc1)c1ccc2c(c1)OCO2 (stereo not given) .
YES

Check if EC50 falls below 400 nM for `CCN1/C(=C/c2sc3ccc(OC)cc3[n+]2CC)C=Cc2cc(OC)ccc21` .
NO

Check if EC50 falls below 400 nM for `N#C/C(=C\c1cn(Cc2ccccc2Cl)c2ccccc12)c1nn(CCO)c(N)c1C#N` .
NO

Check if EC50 falls below 400 nM for `CN(CCCNc1ccnc2cc(Cl)ccc12)C(=O)c1ccc(Cl)c([N+](=O)[O-])c1` .
YES

Check if EC50 falls below 400 nM for `CN(C)CCNC(=O)c1ccc(-c2cncc(NCc3ccc(Cl)c(Cl)c3)c2)cc1` .
YES

Check if EC50 falls below 400 nM for `COc1ccc(Nc2ccccc2NC(=O)c2cccc(N(C)C)c2)cc1` .
NO

Check if EC50 falls below 400 nM for `Cc1ccc(-c2c3c(nc4sc(C(=O)Nc5cccc(C)c5)c(N)c24)CCC3)cc1` .
YES

Check if EC50 falls below 400 nM for COc1cc(C(=O)NC(c2cccs2)c2cc(Cl)c3cccnc3c2O)cc(OC)c1OC (stereo not given) .
NO

---

- Assay overview: NOVARTIS: Cytotoxicity against human hepatocellular carcinoma cell line (Huh7)
- Assay type: toxicity, cell-based, Huh-7
- Protocol conditions: Huh7 cells (hepatocellular carcinoma cell line)
Reported metric: CC50

Dear colleague, please send me the reported CC50 for `CC(C)COc1nc(-c2ccccc2)n(S(=O)(=O)c2cccc3cccnc23)n1` when you can.
> 2.16 µM

Dear colleague, please send me the reported CC50 for `c1ccc(Cn2nnnc2CN2CCN(C(c3ccccc3)c3ccccc3)CC2)cc1` when you can.
> 100 µM

Dear colleague, please send me the reported CC50 for `COc1ccccc1/C=C\CN(C(=O)c1ccc(C)cc1)C(c1ccccc1)c1ccccc1` when you can.
> 4.36 µM

Dear colleague, please send me the reported CC50 for CC(C)CNC(=O)c1cnc(NCCC2CCCN2C)nc1NC1CCCC1 (stereo unspecified) when you can.
> 10 µM

Dear colleague, please send me the reported CC50 for `COc1ccc(/C=C2\SC(=Nc3ccccc3)NC2=O)cc1` when you can.
> 10 µM

Dear colleague, please send me the reported CC50 for `COc1cc(C=C(C#N)c2nc3ccccc3[nH]2)ccc1OCc1ccc(C)cc1` when you can.
> 100 µM

Dear colleague, please send me the reported CC50 for `CN(C)c1ccc(C=Cc2nc(=O)c3ccccc3o2)cc1` when you can.
> 100 µM

Dear colleague, please send me the reported CC50 for `CC(Cl)=CC[N+]1(CC#Cc2cccc3ccccc23)CCOCC1` when you can.
> 100 µM

Dear colleague, please send me the reported CC50 for `COC(=O)c1ccccc1NC(=O)CSc1nc2ccsc2c(=O)n1CCN1CCCC1` when you can.
> 100 µM

Dear colleague, please send me the reported CC50 for COCCN1C(=O)C(O)=C(C(=O)c2ccccc2)C1c1ccccc1[N+](=O)[O-] (stereo unspecified) when you can.
> 100 µM

Dear colleague, please send me the reported CC50 for `O=C(Nc1cccc(OC(=O)c2ccc([N+](=O)[O-])cc2)c1)c1ccc([N+](=O)[O-])cc1` when you can.
> 100 µM

Dear colleague, please send me the reported CC50 for CCCCCCN(C(=O)c1ccc(CCCCC)cc1)C(CC)c1nc2ccccc2c(=O)n1-c1ccccc1OC (stereo unspecified) when you can.
> 10 µM

Dear colleague, please send me the reported CC50 for CCOC(=O)C1=C(C)NC2=C(C(=O)CC(c3ccc(OC)c(OC)c3)C2)C1c1c(F)cccc1Cl (stereo unspecified) when you can.
> 100 µM

Dear colleague, please send me the reported CC50 for CCC(C)NC(=O)c1c[nH]c2ccc(S(=O)(=O)N3CCc4ccccc43)cc2c1=O (stereo unspecified) when you can.
> 10 µM

Dear colleague, please send me the reported CC50 for `CCN(CC)c1ccc2cc(C(C)=NNC(N)=S)c(=O)oc2c1` when you can.
> 100 µM

Dear colleague, please send me the reported CC50 for `CCCCN(C)Cc1cc(-c2cccc(OC)n2)ccc1O` when you can.
> 100 µM

Dear colleague, please send me the reported CC50 for C=CC1CN2CCC1CC2[C@@H](OC(=O)c1ccc(C(C)(C)C)cc1)c1ccnc2ccc(OC)cc12 (stereo partly specified) when you can.
72.5 µM

Dear colleague, please send me the reported CC50 for `COc1ccc(C2=C(Nc3ccc4oc5ccccc5c4c3)c3ccccc3C2=O)cc1` when you can.
> 100 µM

Dear colleague, please send me the reported CC50 for `CCOC(=O)c1[nH]c2ccc(OC)cc2c1N=NN(C)C` when you can.
68.6 µM

Dear colleague, please send me the reported CC50 for CCC(c1nc2ccccc2c(=O)n1-c1ccccc1OC)N(CCc1ccccc1)C(=O)c1ccc(C)cc1 (stereo unspecified) when you can.
> 6.69 µM

Dear colleague, please send me the reported CC50 for CCNC(=S)NC1CC2CCCC(C1)N2CCc1ccccc1 (stereo unspecified) when you can.
> 100 µM

---

- Assay overview: NOVARTIS: Cytotoxicity against human hepatocellular carcinoma cell line (Huh7)
- Format: toxicity, cell-based, Huh-7
- Protocol conditions: Huh7 cells (hepatocellular carcinoma cell line)
Answer each item with its documented CC50.

Dear colleague, please send me the reported CC50 for `CCOc1ccc2[nH]c(=O)c(CN(Cc3ccccc3OC)C(C)=O)cc2c1` when you can.
> 10 µM

Dear colleague, please send me the reported CC50 for `COc1ccc(NC(=O)/C=C/c2ccccc2Cl)cc1` when you can.
> 10 µM

Dear colleague, please send me the reported CC50 for `C[C@@H]1CCC[C@@H](C[C@H]2Cc3cc(O)cc(O)c3C(=O)O2)O1` when you can.
> 100 µM

Dear colleague, please send me the reported CC50 for `O=C(O)CCCCCNc1ncnc2sc3c(c12)CCCC3` when you can.
> 10 µM

Dear colleague, please send me the reported CC50 for `CC1(C)CC(NC(=O)C(=O)NC2CC(C)(C)N(O)C(C)(C)C2)CC(C)(C)N1O` when you can.
> 10 µM

Dear colleague, please send me the reported CC50 for `CCOc1c(Br)cc(C2C(C(=O)OC)=CN(C)C=C2C(=O)OC)cc1OC` when you can.
> 100 µM

Dear colleague, please send me the reported CC50 for `CC1(C)N=C(N)N=C(N)N1c1ccc(F)cc1` when you can.
51 µM

Dear colleague, please send me the reported CC50 for `O=[N+]([O-])c1ccc(Cl)c(-c2ccc(C=NNc3nc4ccccc4[nH]3)o2)c1` when you can.
> 10 µM

Dear colleague, please send me the reported CC50 for `COc1cc2nc(N3CCN(c4nc(N)c5cc(OC)c(OC)cc5n4)CC3)nc(N)c2cc1OC` when you can.
14.7 µM

Dear colleague, please send me the reported CC50 for `Nc1ccc(-c2nc3cc(Cc4ccc5[nH]c(-c6ccc(N)cc6)nc5c4)ccc3[nH]2)cc1` when you can.
17.9 µM

---

- Assay overview: NOVARTIS: Cytotoxicity against human hepatocellular carcinoma cell line (Huh7)
- Type: toxicity, cell-based, Huh-7
- Protocol conditions: Huh7 cells (hepatocellular carcinoma cell line)
Answer each item with its documented CC50.

Dear colleague, please send me the reported CC50 for `COc1cc2cc(C(=O)Nc3ccccc3)c(N)nc2cc1OC` when you can.
> 100 µM

Dear colleague, please send me the reported CC50 for `C[n+]1c(C=Cc2ccc(F)cc2)ccc2ccccc21` when you can.
> 100 µM

Dear colleague, please send me the reported CC50 for `COc1ccc(-c2nc(-c3ccc4c(c3)-c3cc(-c5[nH]c(-c6ccc(OC)cc6)nc5-c5ccccc5)ccc3C4=O)c(-c3ccccc3)[nH]2)cc1` when you can.
94.5 µM

Dear colleague, please send me the reported CC50 for `Cc1nc2c(C)c(-c3ccccc3)nn2c(O)c1C` when you can.
> 100 µM

Dear colleague, please send me the reported CC50 for `O=C(CSc1nc2ccccc2c(=O)n1CCCN1CCOCC1)Nc1cccc(S(=O)(=O)N2CCCCCC2)c1` when you can.
62.1 µM

Dear colleague, please send me the reported CC50 for `COc1ccc(C(=O)Oc2ccccc2-c2nc3cc(C)ccn3c2NC(C)(C)CC(C)(C)C)c(OC)c1` when you can.
> 10 µM

Dear colleague, please send me the reported CC50 for CCOC(=O)c1c(C)[nH]c(C)c1S(=O)(=O)N1CCCC(C(=O)N2CCN(c3cc(C)ccc3C)CC2)C1 (stereo not given) when you can.
> 82.3 µM

Dear colleague, please send me the reported CC50 for Cc1ccc2ccc(C(Nc3ccccn3)c3ccc(Br)cc3)c(O)c2n1 (stereo not given) when you can.
> 100 µM

Dear colleague, please send me the reported CC50 for `CCOc1nc2c(c(=O)n(C)c(=O)n2C)n1Cc1cccc(Br)c1` when you can.
> 10 µM

Dear colleague, please send me the reported CC50 for `Cc1ccn2c(NC(C)(C)CC(C)(C)C)c(-c3ccccc3OC(=O)c3ccc(C)c([N+](=O)[O-])c3)nc2c1` when you can.
> 10 µM

Dear colleague, please send me the reported CC50 for `CC(C)(C)C1=NN(CC(=O)Nc2ccc3c(c2)OCO3)C(=O)c2cc3ccccc3n2C1` when you can.
9.81 µM

Dear colleague, please send me the reported CC50 for `CN(CCCNc1ccc(C(=O)Nc2ccc(C(F)(F)F)cc2)cc1[N+](=O)[O-])Cc1ccccc1` when you can.
> 100 µM

Dear colleague, please send me the reported CC50 for `Cc1nc2ccccc2n1S(C)(=O)=O` when you can.
> 10 µM

Dear colleague, please send me the reported CC50 for O=C(NCCc1ccc(Cl)cc1)C1CCCN(c2nnc(N3CCCC3=O)s2)C1 (stereo not given) when you can.
> 100 µM

Dear colleague, please send me the reported CC50 for `O=C(Nc1ccccc1O)c1ccc(Cl)cc1` when you can.
36.2 µM

Dear colleague, please send me the reported CC50 for COC(=O)C1=C(C)NC2=C(C(=O)CC(c3ccc(OC)c(OC)c3)C2)C1c1cccs1 (stereo not given) when you can.
> 100 µM

Dear colleague, please send me the reported CC50 for CCCOC(=O)C1=C(C)NC2=C(C(=O)CC(c3ccc(OC)c(OC)c3)C2)C1c1cccc(Br)c1 (stereo not given) when you can.
21.6 µM

Dear colleague, please send me the reported CC50 for CCC(c1nc2ccccc2c(=O)n1CC)N1CCN(C(=O)Nc2ccccc2C(F)(F)F)CC1 (stereo not given) when you can.
> 10 µM

Dear colleague, please send me the reported CC50 for c1ccc(C[C@H]2CN(c3ccc4ccccc4c3)CCN2CCNCC2CCCO2)cc1 (stereo not given in full) when you can.
2.54 µM

Dear colleague, please send me the reported CC50 for `CN(C)c1ccc(/C=C/C(=O)NC(=O)c2ccccc2OC(=O)c2ccccc2)cc1` when you can.
> 10 µM
